Each recorded value in this set is attributed to patent US20250188176A1.

# MEASURED ON: T1, Extracellular domain (ECD) of the canine IL-4 receptor alpha-V5 epitope-AviTag-His Tag (canine)
# T1 construct: monomeric form isolated by size exclusion; also called canine IL-4RA-V5-Avi-His; canine IL-4RA
# T1 chain: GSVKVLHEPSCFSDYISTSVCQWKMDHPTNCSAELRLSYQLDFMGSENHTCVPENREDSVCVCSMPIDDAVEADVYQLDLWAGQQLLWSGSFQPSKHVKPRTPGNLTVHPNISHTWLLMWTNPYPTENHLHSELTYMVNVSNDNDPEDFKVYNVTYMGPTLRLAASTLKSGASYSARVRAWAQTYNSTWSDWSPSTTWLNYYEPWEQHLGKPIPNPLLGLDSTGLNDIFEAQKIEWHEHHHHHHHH
# EXPERIMENTAL DETAILS: SPR, Fab-SASA captured on BSA;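 note: biacore T200 SPR, Fab-SASA variants from E. coli conditioned medium captured on BSA-coated CM5 chip, canine IL-4RA injected 120 s then 420 s dissociation, 1:1 model fit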

| BINDER | kon (M⁻¹ s⁻¹) |
| --- | --- |
| TB640_005 Fab-SASA VL-L30A (Fab, V domains shown, not shown: SASA tag then His-tag) VH: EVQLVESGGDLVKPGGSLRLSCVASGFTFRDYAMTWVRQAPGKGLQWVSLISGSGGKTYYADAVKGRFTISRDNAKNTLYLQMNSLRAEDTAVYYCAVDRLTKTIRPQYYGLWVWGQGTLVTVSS VL: DIVMTQTPLSLSVSPGETASISCRSSQSLAYSIGYNYLDWYLQKPGQSPQGLIYLGSKRASGVPDRFSGSGSGTDFTLRISRVEANDTGVYYCMQGLQSPLTFGQGTKLEIKR | 68600 |
| TB640_005 Fab-SASA VL-Q27T (Fab, V domains shown, not shown: SASA tag then His-tag) VH: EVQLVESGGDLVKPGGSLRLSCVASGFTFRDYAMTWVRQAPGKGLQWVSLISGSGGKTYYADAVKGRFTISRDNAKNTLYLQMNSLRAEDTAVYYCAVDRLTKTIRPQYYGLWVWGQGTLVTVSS VL: DIVMTQTPLSLSVSPGETASISCRSSTSLLYSIGYNYLDWYLQKPGQSPQGLIYLGSKRASGVPDRFSGSGSGTDFTLRISRVEANDTGVYYCMQGLQSPLTFGQGTKLEIKR | 69700 |
| TB640_005 Fab-SASA VL-S57T (Fab, V domains shown, not shown: SASA tag then His-tag) VH: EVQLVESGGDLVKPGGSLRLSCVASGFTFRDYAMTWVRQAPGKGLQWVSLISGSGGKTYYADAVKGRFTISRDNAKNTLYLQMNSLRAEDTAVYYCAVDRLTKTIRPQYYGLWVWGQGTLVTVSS VL: DIVMTQTPLSLSVSPGETASISCRSSQSLLYSIGYNYLDWYLQKPGQSPQGLIYLGTKRASGVPDRFSGSGSGTDFTLRISRVEANDTGVYYCMQGLQSPLTFGQGTKLEIKR | 70400 |
| TB640_005 Fab-SASA VH-T28N (Fab, V domains shown, not shown: SASA tag then His-tag) VH: EVQLVESGGDLVKPGGSLRLSCVASGFNFRDYAMTWVRQAPGKGLQWVSLISGSGGKTYYADAVKGRFTISRDNAKNTLYLQMNSLRAEDTAVYYCAVDRLTKTIRPQYYGLWVWGQGTLVTVSS VL: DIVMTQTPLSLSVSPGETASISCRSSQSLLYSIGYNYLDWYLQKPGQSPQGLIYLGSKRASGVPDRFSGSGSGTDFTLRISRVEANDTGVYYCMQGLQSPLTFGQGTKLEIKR | 69200 |
